Assay read-out IC50 on UniProt P35968; records merged from the literature.

For each of the compounds below, note its IC50.
1. COCCOc1cc2ncnc(Oc3ccc(NC(=O)Nc4cccc(OC)c4)cc3)c2c2c1OCCO2
2. COc1cc2nccc(Oc3ccc(NC(=S)NC4CC4)cc3C(F)(F)F)c2cc1C(N)=O

OUT:
1. < 0.05 µM
2. 0.2 to 1 µM

For each of the compounds below, note its IC50.
1. COc1cc(-c2cc3nccc(-c4cc[nH]n4)c3o2)cc(OC)c1OC
2. CCCS(=O)(=O)Nc1ccc(F)c(C(=O)c2c[nH]c3ncc(-c4ccc(F)c(OC)c4)cc23)c1F

OUT:
< 0.3 µM
≤ 10 µM

###

Assay read-out pIC50 on Vascular endothelial growth factor receptor 2 (Homo sapiens, UniProt P35968); records merged from the literature.
pIC50: −log10 of the molar value.

The examples below pair each entry with its known result.
>  <SMILES_DATA>
Nc1cccc(-c2ccnc3[nH]cc(C(=O)c4ccccc4F)c23)c1

>  <pIC50>
≥ 5.00

$$$$
>  <SMILES_DATA>
O=C(Nc1ccc(Oc2ncnc3cc(OCCCN4CCOCC4)c4c(c23)OCCO4)cc1)Nc1ccc(F)c(Cl)c1

>  <pIC50>
> 7.30

$$$$
>  <SMILES_DATA>
COc1cc2nccc(Oc3ccc(NC(=S)N4CC(F)(F)C4)c(Cl)c3F)c2cc1C(N)=O

>  <pIC50>
> 7.30

$$$$

For each of the molecules below, note its pIC50.
1. CCc1ccc(CNc2ncc(Cc3c[nH]c4ncncc34)cn2)nc1
2. COc1cc2nccc(Oc3ccc(NC(=S)NC4(C#N)CC4)c(Cl)c3)c2cc1C(N)=O
3. CCCS(=O)(=O)Nc1ccc(F)c(C(=O)c2c[nH]c3ncc(-c4ccc(S(=O)(=O)N5CCOCC5)cc4)cc23)c1F
4. CCCS(=O)(=O)Nc1ccc(F)c(C(=O)c2c[nH]c3ncc(-c4ccc(Cl)nc4)cc23)c1F
5. Cc1cnc(-c2cnc3[nH]cc(C(=O)c4c(F)ccc(NS(=O)(=O)c5ccc(C(F)(F)F)cc5)c4F)c3c2)[nH]1
6. COCCOc1cc2nccc(Oc3ccc(NC(=O)c4cn(C)c(=O)n(-c5ccc(F)cc5)c4=O)cc3F)c2c2c1OCCO2
7. COc1cc2nccc(Oc3ccc(Nc4c(NCC(F)(F)F)c(=O)c4=O)c(Cl)c3)c2cc1C(N)=O
8. COc1ccc(F)c(C(=O)c2c[nH]c3nccc(Cl)c23)c1

OUT:
["≥ 5.00", "6.00 to 6.70", "≥ 5.00", "≥ 5.00", "≥ 5.00", "6.30 to 7.30", "6.00 to 6.70", "≥ 5.00"]

For each of the molecules below, note its pIC50.
1. CN1CCN(Cc2cc(NC(=O)Nc3ccc(Oc4ccnc(NC(=O)C5CC5)c4)cc3)cc(C(F)(F)F)c2)CC1
2. Cn1cc(-c2cc(-c3ccc(N4C[C@@H]5[C@@H](CNC(=O)C(C)(C)C)[C@@H]5C4)nc3)c3c(C#N)cnn3c2)cn1
3. O=C(Nc1ccc(F)cc1)Nc1ccc(F)c(C(=O)c2ccc3ncc(N4CCNCC4)nc3c2)c1
4. COc1cc2nccc(Oc3ccc(NC(=S)Nc4cnn(C(C)C)c4)c(Cl)c3)c2cc1C(N)=O

OUT:
7.92
7.30 to 8.00
> 7.00
> 7.30

###

Assay read-out IC50 on Vascular endothelial growth factor receptor 2 (Homo sapiens); records merged from the literature.

The examples below pair each entry with its known result.
>  <MOLECULE>
COc1cc2nccc(Oc3ccc(NC(=O)c4cn(C5COC5)cc(-c5ccc(F)cc5)c4=O)cc3F)c2nc1OC

>  <MEASURED_RESULT>
< 100 nM

$$$$
>  <MOLECULE>
O=C(Nc1cccc(Oc2cc(NC(=O)C3CC3)ncn2)c1)Nc1cccc(C(F)(F)F)c1

>  <MEASURED_RESULT>
12 nM

$$$$
>  <MOLECULE>
CCS(=O)(=O)Nc1ccc(F)c(C(=O)c2c[nH]c3ncc(-c4ccc(F)cc4)cc23)c1F

>  <MEASURED_RESULT>
≤ 10000 nM

$$$$

For each of the molecules below, note its IC50.
1. Cc1cnc2[nH]cc(C(=O)c3c(F)ccc(NS(=O)(=O)c4ccccc4F)c3F)c2c1
2. CC(C#N)c1cccc(C(=O)Nc2cccc(Oc3ccnc(-c4cnn(C)c4)c3)c2)c1 (racemic)
3. CCOc1cc2nccc(Oc3ccc(NC(=O)c4c(OCC)ccn(-c5ccc(F)cc5)c4=O)c(Cl)c3)c2c2c1OCCO2

OUT:
≤ 10000 nM
> 10000 nM
50 to 500 nM

For each of the molecules below, note its IC50.
1. COc1cc2nccc(Oc3ccc(NC(=O)c4c5n(c(C)c(C6=CCOCC6)c4=O)CCOC5)cc3F)c2nc1OC
2. O=C1Nc2ccccc2C2=NCC(c3ccc(Cl)cc3)CN12 (centres unmarked)

OUT:
["> 300 nM", "> 10000 nM"]

###

Assay read-out IC50 on Vascular endothelial growth factor receptor 2 (Homo sapiens, UniProt P35968); records merged from the literature.

The examples below pair each entry with its known result.
>  <SMILES_DATA>
Cc1cc(Oc2ccnc(NC(=O)C3CC3)c2)ccc1NC(=O)Nc1ccc(F)c(OC(F)(F)F)c1

>  <MEASURED_RESULT>
11.8 nM

$$$$
>  <SMILES_DATA>
CN(C)Cc1ccc(Nc2ncc(-c3cccc(OC4CCCC4)c3)o2)cc1

>  <MEASURED_RESULT>
< 1000 nM

$$$$
>  <SMILES_DATA>
CCCS(=O)(=O)Nc1ccc(F)c(Nc2ccnc3ccc(-c4ccncc4)cc23)c1F

>  <MEASURED_RESULT>
> 3000 nM

$$$$
>  <SMILES_DATA>
COc1cc2nccc(Oc3ccc(NC(=S)N4CC(C)(O)C4)c(Cl)c3)c2cc1C(N)=O

>  <MEASURED_RESULT>
200 to 1000 nM

$$$$
>  <SMILES_DATA>
C[C@H](Nc1ccc(Cc2c[nH]c3ncncc23)c(F)n1)c1ccc(F)cc1

>  <MEASURED_RESULT>
≤ 10000 nM

$$$$

For each of the compounds below, note its IC50.
1. CCOC(=O)c1coc(-c2cc(Oc3cccc(NC(=O)Nc4ccc(Cl)c(C(F)(F)F)c4)c3)ncn2)n1
2. CCN(CC)CCNC(=O)c1ccc(Nc2ncc(-c3cccc(OC4CCCC4)c3)o2)cc1

OUT:
≤ 10000 nM
< 1000 nM

For each of the compounds below, note its IC50.
1. COc1cc2c(Oc3ccc(NC(=O)C4(C(=O)Nc5ccc(F)cc5)CC4)cc3F)ccnc2cc1OCCNC(=O)NCCSC(C)=O
2. COc1cccc(-c2cnc(Nc3ccc(C(=O)N4CCN(C)CC4)cc3)o2)c1

OUT:
1: 30 nM; 2: < 1000 nM

###

Assay read-out IC50 on Vascular endothelial growth factor receptor 2 (Homo sapiens, UniProt P35968); records merged from the literature.

The examples below pair each entry with its known result.
>  <SMILES_DATA>
COc1cc(F)cc(CNc2ccc(Cc3c[nH]c4ncncc34)c(F)n2)c1

>  <MEASURED_RESULT>
≤ 10000 nM

$$$$
>  <SMILES_DATA>
NC(=O)c1ccn2ncc(Oc3ccc(NC(=O)NC4CC4)c(Cl)c3)c2c1

>  <MEASURED_RESULT>
200 to 1000 nM

$$$$
>  <SMILES_DATA>
c1cnc2[nH]cc(-c3ccncc3)c2c1

>  <MEASURED_RESULT>
≤ 10000 nM

$$$$

For each of the compounds below, note its IC50.
1. Cc1c(Oc2ccc(NC(=O)Nc3ccc(Cl)c(C(F)(F)F)c3)cc2)ccnc1-c1cnn(C)c1
2. CCCS(=O)(=O)Nc1ccc(F)c(C(=O)c2c[nH]c3ncc(-c4ccc(S(=O)(=O)CC)cc4)cc23)c1F

OUT:
["317 nM", "≤ 10000 nM"]

###

Assay read-out IC50 on UniProtKB P35968; records merged from the literature.

>  <MOLECULE>
Nc1nc(NCc2cccc(F)c2)cc(-c2cc(-c3ccc(O)cc3)ccc2O)n1

>  <IC50>
1 to 20 µM

$$$$

For each of the molecules below, note its IC50.
1. CCOc1cc(-c2cnc(N3C[C@@H]4[C@H](C3)[C@@H]4NC(=O)c3ncccc3Cl)cn2)c2c(C#N)cnn2c1
2. CN(C)S(=O)(=O)Nc1cccc(C(=O)c2c[nH]c3ncc(Cl)cc23)c1
3. [2H]C1([2H])C([2H])([2H])C2(COc3ccc(F)c(-c4cn([C@H]5C[C@@H](N6CCN(C(C)=O)CC6)C5)c5ncnc(N)c45)c3)OC1([2H])C([2H])([2H])C2([2H])[2H]
4. COCC(O)Cn1cc(-c2nccn3nc(Nc4ccc(N5CCOCC5)cc4)nc23)cn1 (stereo not shown)
5. CCCS(=O)(=O)Nc1ccc(F)c(Nc2ncnc3ccc(-c4ccc(F)nc4)cc23)c1F
6. C=CC(=O)Nc1cc2c(Nc3ccc(Br)cc3F)ncnc2cc1OCCNC(=O)CN1CCOCC1

OUT:
1. > 0.1 µM
2. ≤ 10 µM
3. > 10 µM
4. 0.3 to 3 µM
5. > 3 µM
6. 0.782 µM
